The measurements presented in this section are drawn from patent US20230017045A1.

Test system: test plant species
assay.info: Post-emergent herbicidal activity test (greenhouse, foliar spray, visual growth reduction)
Type: in vivo
conditions.used: post-emergence, 336 h, crabgrass (Digitaria sanguinalis), 14 Days After Application, 140 g ai/ha, read-out: Visual Growth Reduction (%) DIGSA
reported.property: pest or weed control at 140 g/ha

Solved entries:
[
  {
    "molecule": "COC(=O)c1nc(-c2cc(F)c(C(F)(F)F)cc2Cl)ccc1Cl [F243]",
    "result": "95 to 100%"
  },
  {
    "molecule": "O=C(O)c1nc(-c2ccc(C(F)(F)F)c(F)c2)ccc1Cl [F315]",
    "result": "75 to 84%"
  },
  {
    "molecule": "COc1cc(-c2nc(C(=O)O)c(Cl)cc2F)c(Cl)cc1C(F)(F)F [F337]",
    "result": "45 to 59%"
  },
  {
    "molecule": "COC(=O)c1nc(-c2ccc(C(F)(F)F)cc2F)ncc1Cl [F312]",
    "result": "85 to 94%"
  },
  {
    "molecule": "COC(=O)c1nc(-c2c(C=O)cc(OC)c(O)c2Cl)ccc1Cl [F228]",
    "result": "0 to 29%"
  },
  {
    "molecule": "COC(=O)c1nc(-c2c(N)cc(C(F)(F)F)cc2Cl)ccc1Cl [F213]",
    "result": "30 to 44%"
  }
]

query: Requested field: pest or weed control at 140 g/ha. Item: O=C(O)c1nc(-c2cc(Br)c(C(F)(F)F)cc2Cl)ccc1Cl [F349]
result: 75 to 84%

query: What do you have for COC(=O)c1nc(-c2c(Cl)cccc2OC)c(F)cc1Cl [F301] ?
result: 0 to 29%

query: How about this molecule: Cc1cc(C(F)(F)F)ccc1-c1nc(C(=O)O)c(Cl)cc1F [F267]
result: 85 to 94%

query: Further, for CCOc1cc(C(F)(F)F)ccc1-c1nc(C(=O)OC)c(Cl)cc1F [F311] ?
result: 0 to 29%

query: Further, for COC(=O)c1nc(-c2cc(Cl)c(C(F)(F)F)cc2C)ccc1Cl [F371] ?
result: 45 to 59%

query: Further, for COC(=O)c1nc(-c2ccc(C(F)(F)F)cc2Cl)ccc1[N+](=O)[O-] [F201] ?
result: 0 to 29%

query: Try this molecule too: COC(=O)c1nc(-c2cc(SC)c(C(F)(F)F)cc2Cl)c(F)cc1Cl [F332]
result: 0 to 29%

query: Follow-up item: COC(=O)c1nc(-c2ccc(C(F)(F)F)cc2OC)c(F)cc1F [F377]
result: 60 to 74%
